system: Escherichia coli TOP10; test: shrunken log2 fold change of peptide-encoding DNA abundance (4.5 h post-induction vs induction); higher = less antimicrobial activity (less host growth inhibition); details: time post-induction: 4.5 h; library: site-saturation at positions 5, 18, 19, 20
reportedEndpoint: shrunken log2 fold change

1. RRIRLRPPRLPRPRPRPRVQPRP -0.143

I need shrunken log2 fold change for every entry listed below, if you could help.
1. RRIRCRPPRLPRPRPRPYIDPRP
2. RRIRRRPPRLPRPRPRPMVRPRP

1: -1.39; 2: 0.276

====

Kindly supply the reported shrunken log2 fold change values for the records listed here.
system: Escherichia coli TOP10; experiment: shrunken log2 fold change of peptide-encoding DNA abundance (4.5 h post-induction vs induction); higher = less antimicrobial activity (less host growth inhibition); details: time post-induction: 4.5 h; library: site-saturation at positions 5, 18, 19, 20;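 further: peptides expressed intracellularly from a pBAD plasmid library in pooled LB shake-flask culture, induced with 0.3% L-arabinose, DNA abundance read by NGS, three biological replicates, DESeq2 with apeglm shrinkage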

Sample records with shrunken log2 fold change:
1) RRIRGRPPRLPRPRPRPWSLPRP 0.094
2) RRIRARPPRLPRPRPRPQWFPRP 0.0925
3) RRIRVRPPRLPRPRPRPMDTPRP -0.171
4) RRIRNRPPRLPRPRPRPHMQPRP -0.304
5) RRIRGRPPRLPRPRPRPEQKPRP 0.105

I need shrunken log2 fold change for every entry listed below, if you could help.
1. RRIRNRPPRLPRPRPRPEMFPRP
2. RRIRYRPPRLPRPRPRPIVQPRP
3. RRIRGRPPRLPRPRPRPGFGPRP
4. RRIRSRPPRLPRPRPRPKSWPRP
5. RRIRARPPRLPRPRPRPHSTPRP
6. RRIRARPPRLPRPRPRPNTPPRP
7. RRIRNRPPRLPRPRPRPCCVPRP
8. RRIRMRPPRLPRPRPRPPIVPRP

1. 0.0119
2. -0.121
3. 0.649
4. 0.392
5. 0.0355
6. -0.00444
7. -0.667
8. -0.112

I need shrunken log2 fold change for every entry listed below, if you could help.
1. RRIRWRPPRLPRPRPRPMRHPRP
2. RRIRERPPRLPRPRPRPTIWPRP

0.228
-0.222
